System: T-47D breast
Test: NCI-60 one-dose screen, 48 h
Settings: 10 µM
Method: Growth inhibition of the T-47D human tumor cell line is measured as a screen for anti-cancer activity. Cells are grown in 96 well plates and exposed to the test compound for 48 hours. Compounds are tested at a single concentration, which is 10^-5 M for most compounds. The reported endpoint is percent growth (GI% or GIPRCNT), where numbers from 0 - 100% represent growth inhibition, and numbers from -100% - 0 represent cell death. For example, a value of 40 represents 60% growth inhibition. […]
About 83,000 compounds went through this panel and 20% of them were active in at least one assay; those are over-represented in the sample as a whole. The source made the active and inactive calls. The calls were made as follows: active = growth percent below 10; inactive = the rest.
Use one of these outcomes when replying: active, inactive

Examples from the recorded data:
# molecule, subjectOfTest, group
data = [
    ("CCCCCCCCCCCCCC[n+]1ccc(C)cc1", "T-47D breast", "inactive"),
    ("COC1OC2COC(c3ccccc3)OC2C(=O)C1NC(=O)c1ccccc1 (stereo not given)", "T-47D breast", "inactive"),
    ("CCCCCCCCCCCCCC[n+]1ccccc1", "T-47D breast", "inactive"),
    ("CCCN(CCC)CCCNC(=O)c1cc2c(-c3ccc(OC)c(OC)c3)nn(C)c2s1", "T-47D breast", "inactive"),
]

Input: Outcome logged for N#CN1CC[C@H](C(=O)Nc2ncc(-c3ccncc3)s2)C1 in this assay:
Output: active

Input: Outcome logged for O=C(Nc1ccc(OCc2nnc(-c3ccccc3)o2)c(F)c1)Nc1ccc(Cl)c(Cl)c1 in this assay:
Output: inactive

Input: Outcome logged for CCOC(=O)c1c(O)c2cc(-c3ccccc3)nc(OCC)c2c(=O)n1C in this assay:
Output: inactive

Input: Outcome logged for COc1ccc(-c2n/c(=C\c3c(O)[nH]c4ccccc34)cc3c2=Nc2ccccc2-3)cc1 in this assay:
Output: inactive

Input: Outcome logged for C=CCNCCCN1C(=O)c2ccc3c4c(ccc(c24)C1=O)C(=O)N(CCCNCC=C)C3=O in this assay:
Output: active

Input: Outcome logged for C=CCn1ccc(=O)nc1SC in this assay:
Output: inactive

---

tested on: SK-MEL-2 melanoma; test: NCI-60 one-dose screen, 48 h; details: 10 µM
The panel holds about 83,000 compounds, 20% with a hit somewhere; the sample as a whole holds those more often. Activity calls are given as the source filed them. Rule for the calls: active = growth percent below 10; inactive = the rest.
Use one of these outcomes when replying: active, inactive

# molecule, group
measured = [
    ("Oc1[nH]c2ccccc2c1/C=c1/cc2c(c(-c3ccc(C(F)(F)F)cc3)n1)=Nc1ccccc1-2", "inactive"),
    ("COc1ccc2oc(=O)cc(C3c4ccc([nH]4)C(c4cc(=O)oc5ccc(OC)cc45)c4ccc([nH]4)C(c4cc(=O)oc5ccc(OC)cc45)c4ccc([nH]4)C(c4cc(=O)oc5ccc(OC)cc45)c4ccc3[nH]4)c2c1 (stereo not given)", "active"),
    ("CC(=O)N(O)c1ccc(/C=C/c2ccccc2)cc1", "inactive"),
    ("COc1ccc(/C=C(\\c2cc(OC)c(OC)c(OC)c2)c2nnc(-c3cccs3)o2)cc1", "inactive"),
]

Input: Outcome logged for CC(=O)Oc1ccc(C2=Cc3ccc(OC(C)=O)cc3OC2C)cc1 (stereo not given) in this assay:
Output: inactive

---

tested on: SK-OV-3 ovarian; assay: NCI-60 one-dose screen, 48 h (100 = growth as untreated, 0 = no growth, -100 = all killed); details: 10 µM
This is part of a sample that, as a whole, favours compounds with a hit. Of some 83,000 tested, about 20% had one in any assay.
// reported growth per item
Express your answer in %, writing the number without its unit.

Record excerpt, results attached:
# givenSmiles, subjectOfTest, growth [%]
data = [
    ("N#Cc1ncc(-c2cc(F)ccc2F)c(NC2CCCCCC2)n1", "SK-OV-3 ovarian", 91.6),
    ("CCCc1c(CC)c(=N)c2ccccc2n1C", "SK-OV-3 ovarian", 91.3),
]

Pending molecule:
Input: Please look at this molecule and report its growth: O=c1oc2cc(OS(=O)(=O)C3CC3)ccc2c2c1CCCCCC2
Output: 89.1
